Origin of measurements: PubChem BioAssay (NCI)

test system: MDA-MB-435 melanoma; assay: NCI-60 one-dose screen, 48 h (100 = growth as untreated, 0 = no growth, -100 = all killed); settings: 10 µM unless noted
About 83,000 compounds went through this panel and 20% of them were active in at least one assay; those are over-represented in the sample as a whole.
measured_attribute: growth (%)
Numbers only, in %.

Previously resolved entries follow.
Nc1nc(I)c2ncn(C3OC(CO)C(O)C3O)c2n1 (stereo not given)	91.6
Cc1c(C(=O)O)nnn1-c1nccs1	96.2
COc1cc(C(=O)Nc2cc(O)c(CC=C(C)C)c(O)c2)cc2c1O[C@]1(C)CC[C@@H](O)C(C)(C)[C@H]1C2	24.9

// for each compound below, give its growth
1. Cc1cc(N(CCCNc2ccnc3cc(Cl)ccc23)Cc2ccccn2)nc(N2CCOCC2)n1
2. O=c1[nH]nc(-c2ccc(Cl)cc2)cc1Cc1ccccc1
3. O=C(/C=C/C12c3ccccc3C(c3ccccc31)C1C(=O)N(c3ccc(Cl)cc3)C(=O)C12)c1ccccn1 (stereo not given)
4. O=C(NCc1cn(Cc2cccc(Oc3ccccc3)c2)nn1)c1cccnc1NCc1ccc(Cl)cc1
5. CN(C)c1ccc(/C=C/c2c(F)cccc2F)cc1
6. O=C(Nc1ccccc1Cl)OCCN1CCOCC1
7. COc1ccc(/C=C2\COc3ccc(O)cc3C2=O)c(OC)c1

[111, 106, -29.1, -2.51, 101, 107, -30]

// for each compound below, give its growth
1. CC1=NN(c2cccc(Cl)c2)C(=O)/C1=C\c1cn(CC(O)CN2CCCCC2)c2ccccc12 (stereo not given)
2. COc1ccc(/C=N/NC(=O)Cn2c(-c3ccc(S(C)(=O)=O)cc3)nc3cc(Cl)ccc32)cc1
3. O=c1[nH]c(NCc2nnnn2-c2ccc(Br)cc2)nc2sc3c(c12)CCCC3
4. COc1cc2c(cc1OC)-c1ccc3cc4c(cc3c1N(CCN(C)C)C2)OCO4
5. Nc1c(C(=O)Nc2ccccc2)sc2nc3c(cc12)CCCCCC3
6. CCOC(=O)c1sc(-c2ccc(OS(=O)(=O)c3ccc(C(C)(C)C)cc3)c(C=O)c2)nc1C
7. COc1cc(NC(=O)c2cccc(-c3cc(=O)c4c(OC)c(OC)c(OC)cc4o3)c2)cc(OC)c1OC

1.51
-17.8
97.4
40
-17
57.2
6.36

// for each compound below, give its growth
1. O=C(NCOC(O)C(Cl)(Cl)Cl)NCOC(O)C(Cl)(Cl)Cl (stereo not given)
2. COc1cc2cc(Oc3ccc(NC(=O)Nc4cc(C(F)(F)F)cc(C(F)(F)F)c4)cc3)c(C)nc2cc1OCCN1CCCCC1
3. CCN1CCN(c2ccc(Nc3cc(-c4cccnc4Nc4c(Cl)c(OC)cc(OC)c4Cl)ncn3)cc2)CC1

[107, -94.4, 89.7]

* * *

tested on: OVCAR-4 ovarian; experiment: NCI-60 one-dose screen, 48 h (100 = growth as untreated, 0 = no growth, -100 = all killed); settings: 10 µM unless noted
Compounds without any hit were thinned out: in the full panel of roughly 83,000, 20% have a hit.
measured_attribute: growth (%)
One number for each entry, in %.

Previously resolved entries follow.
COc1cc(C(=O)/C=C/c2c(-c3ccc(F)cc3)nc3ncccn23)cc(OC)c1OC	46.5
CCc1nc2ccccc2[nH]1	112

// for each compound below, give its growth
1. O=c1oc2ccc(Cl)cc2cc1-c1cs/c(=N/N=C\c2ccc(Cl)cc2)n1/N=C/c1ccc(Cl)cc1
2. CCN(CC)S(=O)(=O)c1ccc(O)c(NC(=O)c2[nH]c(C)c(C(C)=O)c2CCc2ccc(Cl)cc2)c1
3. CCCCN1CCN(c2ccc3nc(-c4ccc5nc(-c6cc(OC)c(OC)c(OC)c6)[nH]c5c4)[nH]c3c2)CC1

98.5
15.2
84.4

* * *

system: MOLT-4 leukemia; assay: NCI-60 one-dose screen, 48 h; conditions: 10 µM unless noted
About 83,000 compounds went through this panel and 20% of them were active in at least one assay; those are over-represented in the sample as a whole. The source made the active and inactive calls. How the source made its calls: active means growth percent below 10; inactive means the rest.
Please state which outcome applies, choosing from active, inactive

O=C1Nc2ccccc2SC1c1ccccc1Cl (stereo not drawn)	inactive
Cc1ccccc1NC(=O)CN(C)C	inactive
CN(C)c1ccc(/C=C2\C=C(c3ccccc3)N(CCc3ccccc3)C2=O)cc1	inactive
CSc1nc2sc3cc(Cl)ccc3n2c(=N)c1C#N	inactive

As a next step, examine the compound that follows.
Each compound tested received a call. Report the one for COc1ccc(-c2cc(-c3ccc(Nc4nc(Nc5ccccc5)nc(Nc5ccc(Cl)cc5)n4)cc3)nc(N)n2)cc1 .
inactive

* * *

Exercise: for every item that follows, state its recorded growth.
Tested on: MALME-3M melanoma
Experiment: NCI-60 one-dose screen, 48 h (100 = growth as untreated, 0 = no growth, -100 = all killed)
Conditions: 10 µM unless noted
Method: Cells are grown in 96 well plates and exposed to the test compound for 48 hours. Compounds are tested at a single concentration, which is 10^-5 M for most compounds. The reported endpoint is percent growth (GI% or GIPRCNT), where numbers from 0 - 100% represent growth inhibition, and numbers from -100% - 0 represent cell death. For example, a value of 40 represents 60% growth inhibition. A value of 0 means no net growth occurred over the course of the experiment. […]
About 83,000 compounds went through this panel and 20% of them were active in at least one assay; those are over-represented in the sample as a whole.
Answers are plain numbers, in %.

Previously resolved entries follow.
CCCn1nc(-c2ccccc2)c2c(-c3ccccc3)onc2c1=O	96.5
CC(C)OCCCNCC(=O)Nc1ccc(S(=O)(=O)c2ccc(NC(=O)CNCCCOC(C)C)cc2)cc1	99.7
O=[N+]([O-])c1ccccc1C(O)Cc1ccc2ccccc2n1 (centres undefined)	89.6
N#Cc1c(-c2ccc(C(F)(F)F)cc2)cc(N2CC(O)C2)n2c1nc1ccccc12	-3.85
CN(C)CCOC(=O)Nc1ccc(Cl)cc1	114

// for each molecule below, give its growth
1. Cl.[Pt].[c-]1ccccc1-c1ccccn1.c1ccc(P(c2ccccc2)C([PH+](c2ccccc2)c2ccccc2)[PH+](c2ccccc2)c2ccccc2)cc1
2. Cc1cc(-c2ccccc2)cc(SC#N)[n+]1[O-]
3. O=C1c2ccccc2C(=O)c2cc(Cn3cc[n+](Cc4ccc5ccccc5c4)c3)ccc21
4. O=[N+]([O-])c1ccc(-c2cc3c(Nc4ccc(Sc5nc6ccccc6s5)c(Cl)c4)ncnc3s2)cc1

-9.83
59.3
66.5
62.9

* * *

test system: IGROV1 ovarian; experiment: NCI-60 one-dose screen, 48 h (100 = growth as untreated, 0 = no growth, -100 = all killed); conditions: 10 µM unless noted
This is part of a sample that, as a whole, favours compounds with a hit. Of some 83,000 tested, about 20% had one in any assay.
measured_attribute: growth (%)
Give bare numbers, in %.

Previously resolved entries follow.
Cn1ccnc1C(=O)/C=C/c1ccc(C(=O)Nc2ccc(S(F)(F)(F)(F)F)cc2)cc1	22.3
O=C(/C=C/C12c3ccccc3C(c3ccccc31)C1C(=O)NC(=O)C12)c1ccc(Cl)cc1 (stereo not given)	-38.6
O=C1CSC(c2ccccc2Cl)N1c1nnc(Cn2cnnc2)o1 (stereo not given)	74.7
COc1ccc(-c2nnc(SCC(=O)NC3=NN=C(c4ccccc4)CS3)o2)cc1	108
COc1ccc(-c2cc(-c3cc(OC)ccc3O)[nH]c(=O)c2C#N)cc1	71.6

// for each molecule below, give its growth
1. N=C(N)c1ccc(-c2ccc(-c3ccc(Cl)c(Cl)c3)o2)cc1
2. O=C(CC1Sc2ccccc2NC1=O)NNc1ccc(F)cc1 (stereo not given)
3. COc1cc2cc(Oc3ccc(NC(=O)Nc4cc(C(F)(F)F)cc(C(F)(F)F)c4)cc3)c(C)nc2cc1OCCN1CCCCC1
4. Clc1ccc(-c2nc(NCCc3ccccc3)nc3c(NCCc4ccccc4)cnn23)cc1
5. CCCCOc1ccc(NC(=O)n2nc(N=NN(C)C)c3ccc(Cl)cc32)cc1

[-64.6, 70.3, -78.4, 71.5, 82.8]

* * *

test system: IGROV1 ovarian; assay: NCI-60 one-dose screen, 48 h (100 = growth as untreated, 0 = no growth, -100 = all killed); details: 10 µM unless noted
This is part of a sample that, as a whole, favours compounds with a hit. Of some 83,000 tested, about 20% had one in any assay.
Exercise: for every item that follows, state its recorded growth.
Numbers only, in %.

O=C(C[C@@]1(O)C(=O)Nc2c(Cl)ccc(Cl)c21)c1ccc(C2CC2)cc1	22.9
Cc1cc(C)on1	110

// for each compound below, give its growth
1. COc1cc(/C=C/C(=O)c2cccc(-n3cc(-c4ccccc4)[nH]c3=O)c2)cc(OC)c1OC
2. C=C(C)[C@@H]1CC[C@]2(C(=O)NCC(=O)O)CC[C@]3(C)[C@H](CC[C@@H]4[C@@]5(C)Cc6c([nH]c7ccccc67)C(C)(C)[C@@H]5CC[C@]43C)[C@@H]12
3. O=C1Nc2ccccc2SC1C1SC(=S)N(Cc2ccccc2)C1=O (stereo not drawn)
4. O=C1CSC(c2ccccc2)N1c1ccccc1 (stereo not drawn)
5. NC(N)=N/N=C/CO

1: -23.8; 2: 83.3; 3: 96.5; 4: 112; 5: 108

// for each compound below, give its growth
1. Cc1cc2c(F)c(Oc3ncnc(Nc4ccc(N5C[C@@H](C)N[C@@H](C)C5)cc4)c3C#N)cc(F)c2[nH]1
2. CN1CCN(C(=O)[C@@]2(C)CC[C@]3(C)CC[C@]4(C)C(=CC[C@@H]5[C@@]6(C)C/C(=C/c7ccncc7)C(=O)C(C)(C)[C@@H]6CC[C@]54C)[C@@H]3C2)CC1
3. COc1ccc(-c2nc3sccn3c2/C=C/C(=O)c2c[nH]c3ccccc23)cc1
4. Cc1ccc(/C=C(\C#N)n2nnc3cc(Cl)c(Cl)cc32)cc1
5. CCc1cc(Cc2cc(CC)cc(C(C)(C)C)c2O)c(O)c(C(C)(C)C)c1
6. N[C@H]1CCC[C@@H]1NCCCCN1C(=O)c2cccc3cccc(c23)C1=O
7. O=[N+]([O-])c1ccc(-c2cc3c(Nc4ccc(Sc5nc6ccccc6s5)c(Cl)c4)ncnc3s2)cc1
8. O=c1cc(-c2ccc(OCc3ccccc3)cc2)oc2c(I)c(OCc3ccccc3)cc(OCc3ccccc3)c12

1: 73; 2: 56.7; 3: 79.2; 4: 12.2; 5: 36.3; 6: 39.3; 7: 43.8; 8: 100

// for each compound below, give its growth
1. N#Cc1c(NC(=O)c2ccc(Br)cc2)sc2c1CCCC2
2. COc1ccc(/C=C2\C=C(c3ccccc3)N(CCc3ccccc3)C2=O)cc1OC

1. 53.7
2. 49
